Target: Sphingosine kinase 2 (Homo sapiens)
Assay: Inhibition of recombinant SphK2 expressed in baculovirus infected Sf9 cells using D-erythro-sphingosine as substrate and [32gammaP]ATP assessed as residual activity at 10 uM by scintillation counting
RECORDED ENDPOINT: Activity (%)

Solved entries (count: 5):
>  <MOLECULE>
CCCCCCCCCC(=O)c1ccc([C@H]2CC[C@H]([N+](C)(C)CCC)CC2)cc1

>  <READING>
75

$$$$
>  <MOLECULE>
CCCCCCCCCCCc1ccc([C@H]2CC[C@H]([N+](C)(C)CCC)CC2)cc1

>  <READING>
50

$$$$
>  <MOLECULE>
CCCCCCCCCCCCCC(=O)c1ccc([C@H]2CC[C@H]([N+](C)(C)CCC)CC2)cc1

>  <READING>
50

$$$$
>  <MOLECULE>
CCCCCCCCCCc1ccc([C@H]2CC[C@H]([N+](C)(C)CCC)CC2)cc1

>  <READING>
26

$$$$
>  <MOLECULE>
CCCCCCc1ccc([C@H]2CC[C@H]([N+](C)(C)CCC)CC2)cc1

>  <READING>
98

$$$$

P: CCCCCCCOc1ccc([C@H]2CC[C@H]([N+](C)(C)CCC)CC2)cc1
Q: CCCCCCCCCC#Cc1ccc([C@H]2CC[C@H]([N+](C)(C)CCC)CC2)cc1
R: CCCCCCCCCCC(=O)c1ccc([C@H]2CC[C@H]([N+](C)(C)CCC)CC2)cc1
S: CCCCCCCC#Cc1ccc([C@H]2CC[C@H]([N+](C)(C)CCC)CC2)cc1
QUERY: # ascending order, key=Activity Write the labels in rank order as requested.
RESULT: Q, R, P, S

====

Target: Sphingosine kinase 1 (Homo sapiens, UniProt Q9NYA1)
Sequence (Q9NYA1 whole entry): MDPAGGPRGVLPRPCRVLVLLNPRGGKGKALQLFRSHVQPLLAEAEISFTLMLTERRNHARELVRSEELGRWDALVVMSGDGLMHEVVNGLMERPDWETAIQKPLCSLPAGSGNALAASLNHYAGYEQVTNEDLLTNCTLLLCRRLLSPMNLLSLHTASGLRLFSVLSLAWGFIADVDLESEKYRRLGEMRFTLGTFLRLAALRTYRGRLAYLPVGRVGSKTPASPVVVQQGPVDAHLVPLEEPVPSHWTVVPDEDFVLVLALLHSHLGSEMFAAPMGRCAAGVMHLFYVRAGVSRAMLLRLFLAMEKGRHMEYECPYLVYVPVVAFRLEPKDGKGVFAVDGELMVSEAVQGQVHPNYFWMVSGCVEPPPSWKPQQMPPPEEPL
Assay: Inhibition of recombinant SphK1 expressed in baculovirus infected Sf9 cells using D-erythro-sphingosine as substrate and [32gammaP]ATP by scintillation counting
pKi: −log10 of the molar value.
RECORDED ENDPOINT: pKi

>  <MOLECULE>
CCCCCCCCCCCCCCCCc1ccc([C@H]2CC[C@H]([N+](C)(C)CCC)CC2)cc1

>  <pKi>
4.57

$$$$
>  <MOLECULE>
CCCCCCCCCCCCc1ccc([C@H]2CC[C@H]([N+](C)(C)CCC)CC2)cc1

>  <pKi>
4.89

$$$$
>  <MOLECULE>
CCCCCCCCCCCCCCc1ccc([C@H]2CC[C@H]([N+](C)(C)CCC)CC2)cc1

>  <pKi>
4.44

$$$$
>  <MOLECULE>
CCCCCCCCCCCc1ccc([C@H]2CC[C@H]([N+](C)(C)CCC)CC2)cc1

>  <pKi>
4.82

$$$$
>  <MOLECULE>
CCCCCCc1ccc([C@H]2CC[C@H]([N+](C)(C)CCC)CC2)cc1

>  <pKi>
4.46

$$$$

a: CCCCCCCCCCc1ccc([C@H]2CC[C@H]([N+](C)(C)CCC)CC2)cc1
b: CCCCCCCCc1ccc([C@H]2CC[C@H]([N+](C)(C)CCC)CC2)cc1
QUERY: Between the entries labeled a and b , whose measured pKi is lower? // caller expects the label of the chosen entry
RESULT: a
(a: 4.46, b: 4.66)

====

Molecular target: Sphingosine kinase 2 (Homo sapiens, UniProt Q9NRA0)
Sequence (Q9NRA0 whole entry): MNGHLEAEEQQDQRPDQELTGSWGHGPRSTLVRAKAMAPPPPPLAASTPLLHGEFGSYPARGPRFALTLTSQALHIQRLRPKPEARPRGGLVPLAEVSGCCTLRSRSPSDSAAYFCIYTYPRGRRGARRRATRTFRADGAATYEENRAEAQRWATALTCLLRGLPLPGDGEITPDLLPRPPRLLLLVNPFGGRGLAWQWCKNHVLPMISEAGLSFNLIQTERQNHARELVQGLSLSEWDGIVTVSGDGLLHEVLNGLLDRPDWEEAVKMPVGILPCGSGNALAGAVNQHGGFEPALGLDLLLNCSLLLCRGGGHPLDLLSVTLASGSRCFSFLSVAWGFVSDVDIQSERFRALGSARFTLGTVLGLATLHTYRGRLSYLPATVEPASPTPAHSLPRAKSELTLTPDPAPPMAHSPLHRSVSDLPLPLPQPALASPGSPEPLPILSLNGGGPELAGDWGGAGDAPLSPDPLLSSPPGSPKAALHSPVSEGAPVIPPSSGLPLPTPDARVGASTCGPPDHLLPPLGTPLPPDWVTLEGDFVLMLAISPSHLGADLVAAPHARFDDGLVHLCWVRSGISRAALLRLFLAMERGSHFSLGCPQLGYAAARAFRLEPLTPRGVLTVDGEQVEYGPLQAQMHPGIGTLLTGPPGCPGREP
Test: Inhibition of human recombinant SphK2 using NBD-sphingosine as substrate after 2 hrs by HPLC analysis
RECORDED ENDPOINT: Ki (µM)
Answer with a number only, understood to be in µM.

QUERY: // query Ki value for entry O=C(NCc1ccncc1)C12CC3CC(C1)CC(c1ccc(Cl)cc1)(C3)C2
RESULT: 9.8

====

Target: UniProtKB Q9NRA0
Assay: Inhibition of recombinant SphK2 expressed in baculovirus infected Sf9 cells using D-erythro-sphingosine as substrate and [32gammaP]ATP assessed as residual activity at 10 uM by scintillation counting
RECORDED ENDPOINT: Activity (%)

>  <MOLECULE>
CCCCCCCCCCCCCCc1ccc([C@H]2CC[C@H]([N+](C)(C)CCC)CC2)cc1

>  <Activity / %>
38

$$$$
>  <MOLECULE>
CCCCCCCCc1ccc([C@H]2CC[C@H]([N+](C)(C)CCC)CC2)cc1

>  <Activity / %>
64

$$$$
>  <MOLECULE>
CCCCCCCCCCCCCCCC(=O)c1ccc([C@H]2CC[C@H]([N+](C)(C)CCC)CC2)cc1

>  <Activity / %>
58

$$$$
>  <MOLECULE>
CCCCCCCCCCCCc1ccc([C@H]2CC[C@H]([N+](C)(C)CCC)CC2)cc1

>  <Activity / %>
26

$$$$
>  <MOLECULE>
CCCCCCCCC#Cc1ccc([C@H]2CC[C@H]([N+](C)(C)CCC)CC2)cc1

>  <Activity / %>
78

$$$$

P: CCCCCCCCCCCCCCCCc1ccc([C@H]2CC[C@H]([N+](C)(C)CCC)CC2)cc1
Q: CCCCCCCCCCCC(=O)c1ccc([C@H]2CC[C@H]([N+](C)(C)CCC)CC2)cc1
QUERY: Task for the reader: decide whether P or Q has the larger Activity. Identify your pick by its label.
RESULT: P
(P: 70%, Q: 41%)

====

Target: Sphingosine kinase 2 (Homo sapiens, UniProt Q9NRA0)
Assay: Inhibition of SphK2 using sphingosine as substrate and [32gammaP]ATP after 15 to 20 mins by Cerenkov counting analysis
RECORDED ENDPOINT: pKi
// scale note: pKi = -log10(conc_M); give the bare number

QUERY: Write down the reported pKi of CCCCCCCCc1ccc(CC[C@@](N)(CO)COC)cc1 , test system: Sphingosine kinase 2 (Homo sapiens, UniProt Q9NRA0).
RESULT: 4.78

====

Biological target: Sphingosine kinase 1 (Homo sapiens, UniProt Q9NYA1)
Test: Inhibition of recombinant SphK1 expressed in baculovirus infected Sf9 cells using D-erythro-sphingosine as substrate and [32gammaP]ATP assessed as residual activity at 10 uM by scintillation counting
RECORDED ENDPOINT: Activity (%)

Look over these answered cases.
>  <MOLECULE>
CCCCCCCCCCc1ccc([C@H]2CC[C@H]([N+](C)(C)CCC)CC2)cc1

>  <ENDPOINT UNIT>
%

>  <READING>
67

$$$$
>  <MOLECULE>
CCCCCCCCCC(=O)c1ccc([C@H]2CC[C@H]([N+](C)(C)CCC)CC2)cc1

>  <ENDPOINT UNIT>
%

>  <READING>
93

$$$$
>  <MOLECULE>
CCCCCCCCCCCCCCc1ccc([C@H]2CC[C@H]([N+](C)(C)CCC)CC2)cc1

>  <ENDPOINT UNIT>
%

>  <READING>
76

$$$$
>  <MOLECULE>
CCCCCCc1ccc([C@H]2CC[C@H]([N+](C)(C)CCC)CC2)cc1

>  <ENDPOINT UNIT>
%

>  <READING>
98

$$$$

I: CCCCCCCOc1ccc([C@H]2CC[C@H]([N+](C)(C)CCC)CC2)cc1
II: CCCCCCCCC#Cc1ccc([C@H]2CC[C@H]([N+](C)(C)CCC)CC2)cc1
QUERY: Identify the item whose Activity is the smaller number: I or II Give the label under which the chosen entry appears.
RESULT: II
(II: 61%, I: 100%)

====

Target: Sphingosine kinase 2 (Homo sapiens, UniProt Q9NRA0)
Assay: Inhibition of recombinant SphK2 expressed in baculovirus infected Sf9 cells using D-erythro-sphingosine as substrate and [32gammaP]ATP by scintillation counting
pKi: −log10 of the molar value.
RECORDED ENDPOINT: pKi

A selection of reference data follows.
>  <MOLECULE>
CCCCCCCCCCCCCCc1ccc([C@H]2CC[C@H]([N+](C)(C)CCC)CC2)cc1

>  <STUDY SYSTEM>
Sphingosine kinase 2 (Homo sapiens, UniProt Q9NRA0)

>  <pKi>
5.15

$$$$
>  <MOLECULE>
CCCCCCCCCCCCCCCCc1ccc([C@H]2CC[C@H]([N+](C)(C)CCC)CC2)cc1

>  <STUDY SYSTEM>
Sphingosine kinase 2 (Homo sapiens, UniProt Q9NRA0)

>  <pKi>
4.54

$$$$
>  <MOLECULE>
CCCCCCCCCCCCc1ccc([C@H]2CC[C@H]([N+](C)(C)CCC)CC2)cc1

>  <STUDY SYSTEM>
Sphingosine kinase 2 (Homo sapiens, UniProt Q9NRA0)

>  <pKi>
5.10

$$$$
>  <MOLECULE>
CCCCCCCCCCc1ccc([C@H]2CC[C@H]([N+](C)(C)CCC)CC2)cc1

>  <STUDY SYSTEM>
Sphingosine kinase 2 (Homo sapiens, UniProt Q9NRA0)

>  <pKi>
4.37

$$$$

I: CCCCCCc1ccc([C@H]2CC[C@H]([N+](C)(C)CCC)CC2)cc1
II: CCCCCCCCCCCc1ccc([C@H]2CC[C@H]([N+](C)(C)CCC)CC2)cc1
III: CCCCCCCCc1ccc([C@H]2CC[C@H]([N+](C)(C)CCC)CC2)cc1
QUERY: Falling order of pKi, please. Sort the labels as requested; that list is your answer.
RESULT: II, III, I
(II: 4.96, III: 4.68, I: 4.37)
